System: NCI-H1975
Experiment: relative viability (nuclei count vs DMSO), 5 days (fraction); higher = more cells survive
Settings: first compound 500 µM
READOUT_KIND: relative viability

**Query** Given the entry O=C(O)CCCCC(CCSCc1ccccc1)SCc1ccccc1 (stereo not given) [CPI-613] + CS(=O)(=O)CCNCc1ccc(-c2ccc3ncnc(Nc4ccc(OCc5cccc(F)c5)c(Cl)c4)c3c2)o1 [Lapatinib] (partner 2 µM) , report its measured relative viability.
**Result** 0.0608

**Query** Given the entry O=C(O)CCCCC(CCSCc1ccccc1)SCc1ccccc1 (stereo not given) [CPI-613] + CS(=O)(=O)N1CCN(Cc2cc3nc(-c4cccc5[nH]ncc45)nc(N4CCOCC4)c3s2)CC1 [Pictilisib] (partner 1 µM) , report its measured relative viability.
**Result** 0.0574

**Query** Given the entry O=C(O)CCCCC(CCSCc1ccccc1)SCc1ccccc1 (stereo not given) [CPI-613] + Cc1nc(NC(=O)N2CCC[C@H]2C(N)=O)sc1-c1ccnc(C(C)(C)C(F)(F)F)c1 [Alpelisib] (partner 2 µM) , report its measured relative viability.
**Result** 0.0528

**Query** Given the entry O=C(O)CCCCC(CCSCc1ccccc1)SCc1ccccc1 (stereo not given) [CPI-613] + C[C@]1(O)C[C@@H](c2nc(-c3ccc4ccc(-c5ccccc5)nc4c3)c3c(N)nccn32)C1 [Linsitinib] (partner 1 µM) , report its measured relative viability.
**Result** 0.0601

**Query** Given the entry O=C(O)CCCCC(CCSCc1ccccc1)SCc1ccccc1 (stereo not given) [CPI-613] + CC(C)C[C@H](NC(=O)[C@H](Cc1ccccc1)NC(=O)c1cnccn1)B(O)O [Bortezomib] (partner 0.002 µM) , report its measured relative viability.
**Result** 0.0487
